These entries and their values trace back to PubChem BioAssay (NCATS).

assay: qHTS profiling of the MIPE4 collection as inhibitors of Plasmodium falciparum (DD2) proliferation (Rep 2) (AID 743346); details: P. falciparum Dd2 in erythrocytes, SYBR Green DNA, 72 h; at 28.5 µM unless noted
endpoint label: parasite growth, % of control (lower = inhibition) (%)
Report only the number, with the unit % understood.

[[record]]
smiles_record = "COc1ccc2cc([S+]([O-])Cc3ncc(C)c(OC)c3C)nc2c1"
unit_name = "%"
value = 61.5


[Q] What does the record list as parasite growth, % of control (lower = inhibition) for COc1cc(CCc2cc(NC(=O)c3ccc(N4C[C@@H](C)N[C@@H](C)C4)cc3)n[nH]2)cc(OC)c1 ?
[A] 43.7

[Q] // query: Cc1cn([C@@H]2O[C@H](CO)[C@@H](O)[C@H]2F)c(=O)[nH]c1=O
[A] 78.6

[Q] // query: NC(=O)Nc1sc(-c2ccc(F)cc2)cc1C(N)=O
[A] 9.96

[Q] // query: C[C@H]1[C@@H](OC(=O)CCC(=O)O)O[C@@H]2O[C@@]3(C)CC[C@@H]4[C@H](C)CC[C@@H]1[C@@]24OO3
[A] 10.6

[Q] // query: Cn1cc(-c2ccc3ncc(Cc4ccc5ncccc5c4)n3n2)cn1
[A] 33.6

[Q] // query: COc1ccc(C[C@@H](C)[C@@H](C)Cc2ccc(OC)c(OC)c2)cc1OC
[A] 60.3

[Q] // query: Cc1nc(NC(=O)N2CCC[C@@H]2C(N)=O)sc1-c1ccnc(C(C)(C)C(F)(F)F)c1
[A] 24

[Q] // query: CC(=O)O[C@H]1C[C@@H]2CC[C@H]3[C@H]4C[C@H]([N+]5(C)CCCCC5)[C@@H](OC(C)=O)[C@@]4(C)CC[C@@H]3[C@@]2(C)C[C@H]1N1CCCCC1
[A] 37.1

---

experiment: qHTS Screen of the MIPE 4.0 Collection Against Ewings Sarcoma (TC32) (AID 1259256); settings: TC32 Ewing sarcoma viability, CellTiter-Glo, 48 h; series mostly up to 45.8 µM; also: nearly all actives have a fitted effect of over 45% in size; also: potency is read from the fitted curve at half-maximal effect
Records with an inconclusive call do not appear. The source made the active and inactive calls. Calls follow the shape of the dose curve; as a rule, active = well fitted inhibition curve with a large enough effect; inconclusive = small, poorly fitted or top-dose-only effect; inactive = no such curve, though single readings can be large or run the other way.
endpoint label: Potency

[[record]]
compound = "O=C1NC(O)CCN1[C@@H]1O[C@H](CO)[C@H](O)[C@H]1O (stereo not given in full)"
endpoint_label = "Potency"
value = "inactive"

[[record]]
compound = "Nc1ccc(C(=O)Nc2cccc(-c3nc(N4CCOCC4)c4oc5ncccc5c4n3)c2)cn1"
endpoint_label = "Potency"
value = "16600 nM (active)"

[[record]]
compound = "COc1cc(C[C@@H](CO)[C@H](CO)Cc2ccc(O)c(OC)c2)ccc1O"
endpoint_label = "Potency"
value = "372 nM (active)"

[[record]]
compound = "CC1(C)CC(O)CC(C)(C)N1[O]"
endpoint_label = "Potency"
value = "inactive"

[[record]]
compound = "O=C(O)C(=O)Nc1cccc(C2=NN=N[N]2)c1"
endpoint_label = "Potency"
value = "inactive"


[Q] What does the record list as Potency for Cc1cc(O)c2c(c1)C(=O)c1cccc(O)c1C2=O ?
[A] inactive

[Q] // query: COc1cc([C@@H]2c3cc4c(cc3[C@H](O)[C@H]3COC(=O)[C@@H]23)OCO4)cc(OC)c1OC
[A] 37.2 nM (active)

[Q] // query: COc1cc(OC)c(NC(=O)Nc2cc(C)on2)cc1Cl
[A] inactive

[Q] // query: CC(C)(C)[N+]([O-])=Cc1ccc(S(=O)(=O)O)cc1S(=O)(=O)O
[A] inactive

[Q] // query: CON=C(C(=O)N[C@@H]1C(=O)N2C(C(=O)O)=C(Cn3ccc(=N)n3CCO)CS[C@H]12)c1csc(N)n1
[A] inactive

---

assay: Quantitative High-Throughput drug screen in 47 multiple myeloma cell lines against the NCATS MIPE library collection: AMO1_DSMZ cell viability assay (AID 1918927; also: nearly all actives have a fitted effect of over 30% in size); conditions: AMO1 myeloma cells viability, CellTiter-Glo ATP luminescence, 48 h; series mostly up to 45.8 µM
Results filed as inconclusive are left out. The source made the active and inactive calls. Calls come from the whole dose curve; as a rule, active = well fitted cell-killing curve with a large enough effect; inconclusive = small, poorly fitted or top-dose-only effect, or effect the other way; inactive = no such curve, though single readings can be large or run the other way.
Form entry, call: pick from 1 (active), 0 (inactive)

Example cases with answers are listed next.
[[record]]
smiles_record = "CC(C)(C)[N+]([O-])=Cc1ccc(S(=O)(=O)O)cc1S(=O)(=O)O"
assigned_class = 0

[[record]]
smiles_record = "Nc1nc(N)c2nc(-c3cccc(O)c3)c(-c3cccc(O)c3)nc2n1"
assigned_class = 1

[[record]]
smiles_record = "COc1ccc(Nc2nccc(NCCO)n2)cc1"
assigned_class = 0

[[record]]
smiles_record = "O=C(Nc1cc2cc[nH]c2cn1)c1ccccc1"
assigned_class = 1

[[record]]
smiles_record = "CC(=O)ON=C1C(c2c(O)[nH]c3cc(Br)ccc23)=Nc2ccccc21"
assigned_class = 1


[Q] Identify the outcome logged in this assay for the molecule shown: COC(=O)[C@@H]1CC2=CC(=O)CC[C@]2(C)[C@@]23O[C@@H]2C[C@@]2(C)[C@H](CC[C@@]24CCC(=O)O4)[C@@H]13
[A] 0

[Q] // query: CC[C@@]1([C@@H]2O[C@@H]([C@H]3O[C@@](O)(CO)[C@H](C)C[C@H]3C)C[C@H]2C)CC[C@H]([C@]2(C)CC[C@]3(C[C@H](O)[C@@H](C)[C@@H]([C@@H](C)[C@@H](OC)[C@H](C)C(=O)O)O3)O2)O1
[A] 1

[Q] // query: CN1CCCN(C(=O)c2cccc(-c3ccc(C=C4C(=O)Nc5ccc(Cl)cc54)o3)c2)CC1
[A] 1

---

tested on: OV90; test: Primary qHTS to identify gynecologic anti-cancer compounds using libraries of approved drugs and bioactive compounds (AID 1345084); details: Gynecologic cancer cell panel viability, ATPlite luminescence, 48 h; series mostly up to 57.5 µM; also: nearly all actives have a fitted effect of over 55% in size
Results filed as inconclusive are left out. The source made the active and inactive calls. Calls follow the shape of the dose curve; as a rule, active = well fitted cell-killing curve with a large enough effect; inconclusive = small, poorly fitted or top-dose-only effect, or effect the other way; inactive = flat fitted curve, though single readings scatter.
Form entry, call: pick from active, inactive

[[record]]
compound = "Cn1cc(-c2ccc3ncc(Cc4ccc5ncccc5c4)n3n2)cn1"
assigned_class = "inactive"

[[record]]
compound = "CCn1c(=O)c2c(nc(C=Cc3ccc(OC)c(OC)c3)n2C)n(CC)c1=O"
assigned_class = "inactive"

[[record]]
compound = "C[C@H](O)[C@@H]1C(=O)N2C(C(=O)O)=C(S[C@@H]3CN[C@H](CNS(N)(=O)=O)C3)[C@@H](C)[C@@H]12"
assigned_class = "inactive"


[Q] Identify the outcome logged in this assay for the compound shown: CC1=C(C(=O)Nc2cc3cn[nH]c3cc2F)C(c2ccc(Cl)cc2F)N=C(c2ccnc(Cl)c2)N1 (stereo not drawn)
[A] inactive

[Q] // query: CC1(C)O[C@@H]2C[C@H]3[C@@H]4CCC5=CC(=O)C=C[C@]5(C)[C@@H]4[C@@H](O)C[C@]3(C)[C@]2(C(=O)CO)O1
[A] inactive

[Q] // query: CC(C)C[C@H](NC(=O)[C@@H](NC(=O)c1cccc(-c2ccccc2)n1)[C@@H](C)O)B(O)O
[A] active

[Q] // query: c1cncc(CN2CCC(n3ncc4c(N5CCOCC5)nc(-c5ccc6[nH]ccc6c5)nc43)CC2)c1
[A] active

[Q] // query: C=CC(=O)Nc1ccc2ncnc(Nc3ccc(OCc4cccc(F)c4)c(Cl)c3)c2c1
[A] inactive

[Q] // query: CCC[C@H]1C[C@H](C(=O)N[C@@H]([C@@H]2O[C@@H](SC)[C@@H](O)[C@@H](O)[C@@H]2O)[C@H](C)Cl)N(C)C1
[A] inactive

[Q] // query: CN(C)CC(=O)N1CCC(c2ccc(NC(=O)c3ncc(C#N)[nH]3)c(C3=CCCCC3)c2)CC1
[A] inactive

[Q] // query: CN1CCc2c(c3ccccc3n2Cc2ccc(C(=O)NO)cc2)C1
[A] inactive

[Q] // query: O=C(Nc1ccc(Oc2ccnc3[nH]ccc23)c(F)c1)c1cccn(-c2ccc(F)cc2)c1=O
[A] inactive

[Q] // query: N#Cc1c(C2CCNCC2)cc(-c2c(O)cccc2OCC2CC2)nc1N
[A] inactive

[Q] // query: CC(O)(C#Cc1ccc2c(c1)N(c1nc(N)ncc1Cl)CC2)c1nccs1 (stereo not drawn)
[A] inactive

[Q] // query: Oc1ccc([C@@H]2Oc3ccc(O)cc3[C@@H]3CCC[C@@H]32)cc1
[A] inactive

[Q] // query: O=C(Nc1cc2cc[nH]c2cn1)c1ccccc1
[A] active

---

Experiment: Quantitative High-Throughput drug screen in 47 multiple myeloma cell lines against the NCATS MIPE library collection: MOLP8_DSMZ cell viability assay (AID 1918977); also: nearly all actives have a fitted effect of over 45% in size
Conditions: MOLP8 myeloma viability, CellTiter-Glo ATP luminescence, 48 h; series mostly up to 45.8 µM
Description: PI: Beverly A. Mock Ph.D. Laboratory of Cancer Biology and Genetics, Center for Cancer Research, National Cancer Institute, National Institute of Health, Bethesda, Maryland […] 5; Detector; 425V; Luminescence; Viewlux PerkinElmer. […] 1. […] Briefly, the corresponding myeloma cell lines were screened in 1,536-well plates with 500 cells, 5-uL per well for inhibition of cell viability (assessed by measuring ATP levels with CellTiterGlo). […]
Records with an inconclusive call do not appear. The source made the active and inactive calls. Calls come from the whole dose curve; as a rule, active = well fitted cell-killing curve with a large enough effect; inconclusive = small, poorly fitted or top-dose-only effect, or effect the other way; inactive = no such curve, though single readings can be large or run the other way.
Form entry, call: pick from active, inactive

Example cases with answers are listed next.
[[record]]
molecule = "CC[C@H]1OC(=O)[C@H](C)[C@@H](O[C@H]2C[C@@](C)(OC)[C@@H](O)[C@H](C)O2)[C@H](C)[C@@H](O[C@@H]2O[C@@H](C)C[C@H](N(C)C)[C@@H]2O)[C@](C)(O)C[C@@H](C)C(=O)[C@H](C)[C@@H](O)[C@]1(C)O"
assigned_class = "inactive"

[[record]]
molecule = "CNC(=O)c1ccc(Nc2cc(Nc3ccccc3S(=O)(=O)C(C)C)c3cc[nH]c3n2)nc1"
assigned_class = "active"

[[record]]
molecule = "O=c1ccn([C@@H]2O[C@H](CO)[C@H](O)[C@@H]2F)c(=O)[nH]1"
assigned_class = "inactive"

[[record]]
molecule = "N#Cc1c(C2CCNCC2)cc(-c2c(O)cccc2OCC2CC2)nc1N"
assigned_class = "active"


Attention now turns to another entry.
[Q] Identify the outcome logged in this assay for the molecule shown: CC(=O)N[C@@H]1[C@H](O[C@@H]2c3ccc(c(Cl)c3)Oc3cc4cc(c3O[C@H]3O[C@H](CO)[C@@H](O)[C@H](O)[C@H]3NC(=O)CCCCCCCC(C)C)Oc3ccc(cc3Cl)C[C@H]3NC(=O)[C@H](N)c5ccc(O)c(c5)Oc5cc(O)cc(c5)[C@H](NC3=O)C(=O)N[C@H]4C(=O)N[C@H]3C(=O)N[C@@H]2C(=O)N[C@@H](C(=O)O)c2cc(O)cc(O[C@H]4O[C@H](CO)[C@@H](O)[C@H](O)[C@H]4O)c2-c2cc3ccc2O)O[C@H](CO)[C@@H](O)[C@@H]1O
[A] inactive
